Tested System: human Colony Stimulating Factor 1 Receptor (CSF1R), CSF1R (gene 1436)
Measurement Description: NVS_ENZ_hCSF1R: NovaScreen (NVS) Enzymatic Assay for human Colony Stimulating Factor 1 Receptor (CSF1R) (AID 2283150)
Records with an inconclusive call do not appear. The source made the active and inactive calls. How the source made its calls: active means hit-call score of the fitted dose curve at least 0.9, where 1 is the maximum; inconclusive means response in the unintended direction; inactive means score below 0.9.
Endpoint Label: AC50

O=C(O)CC(O)(CC(=O)O)C(=O)O
inactive
CCCCCCCCCCCCCCOS(=O)(=O)O
9.44 µM (active)
Nc1nc(Cl)nc2c1ncn2[C@H]1C[C@H](O)[C@@H](CO)O1
inactive
CN(C)C(=O)NC1(c2ccccc2)CCN(CCC[C@]2(c3ccc(Cl)c(Cl)c3)CCCN(C(=O)c3ccccc3)C2)CC1
inactive

What AC50 value was documented for this compound, "O=C(N[C@@H](c1ccccc1)[C@@H]1CCCCN1)c1cccc(C(F)(F)F)c1Cl" ?
inactive

* * *

Read-out: Monocyte Chemoattractant Protein-1 (MCP1), CCL2 (gene 6347)
Measurement Description: BSK_4H_MCP1: BioMAP Diversity Plus: 4H Assay for Monocyte Chemoattractant Protein-1 (MCP1) Biomarker Activity (AID 2283018)
Experimental Context: primary human endothelial cells (HUVEC); actives raise or lower the signal
Procedure: BSK_4H is a cell-based, multiplexed-readout assay that uses umbilical vein endothelium, a human vascular primary cell, with measurements taken at 24 hours after chemical dosing in a 96-well plate.BSK_4H_MCP1 is an assay component measured in the BSK_4H assay. It measures MCP-1 antibody related to regulation of gene expression using ELISA technology.Data from the assay component BSK_4H_MCP1 was analyzed into 1 assay endpoint. […]
Active and inactive are the calls of the source. Rule for the calls: active = hit-call score of the fitted dose curve at least 0.9, where 1 is the maximum; inactive = score below 0.9.
Form entry, call: pick from active, inactive

CC(=O)OC1CC(C)OC(C)O1 (configuration not stated)
inactive
NCCOCCOCCN
inactive
CCCCCCCC(=O)OC
inactive
COC(=O)CCC(=O)OC
inactive
CC(C)OC(=O)C(C)(C)Oc1ccc(C(=O)c2ccc(Cl)cc2)cc1
active
CN(C)C(=O)NC1(c2ccccc2)CCN(CC[C@@]2(c3ccc(F)c(F)c3)CN(C(=O)c3ccccc3)CCO2)CC1
inactive

# fetch the recorded call for "CC1=C(C)S(=O)(=O)CCS1(=O)=O" here
inactive

Now the same for Cc1c(C)c2c(c(C)c1O)CCC(C)(COc1ccc(CC3SC(=O)NC3=O)cc1)O2 (configuration not stated)
active

Now the same for "CCCCCCCCCCCCCCOS(=O)(=O)O"
inactive

Now the same for "CCN(CC)CCOc1ccc(C(=C(Cl)c2ccccc2)c2ccccc2)cc1"
active

Now the same for "CN(C)C(=O)NC1(c2ccccc2)CCN(CCC[C@]2(c3ccc(Cl)c(Cl)c3)CCCN(C(=O)c3ccccc3)C2)CC1"
inactive

Now the same for "CCCCOC(=O)CCCCC(=O)OCCCC"
inactive

* * *

Measurement Description: ATG_Oct_MLP_CIS: Attagene CIS-FACTORIAL HepG2 Assay for human Octamer-Binding Transcription Factor (Oct) (AID 2282993)
Experimental Context: HepG2 Attagene cis-factorial Oct reporter, mRNA; actives raise or lower the signal
Calls of active or inactive are those of the source. Rule for the calls: active = hit-call score of the fitted dose curve at least 0.9, where 1 is the maximum; inactive = score below 0.9.
Form entry, call: pick from y (active), n (inactive)

S=c1[nH]c2ccccc2s1
y

# fetch the recorded call for "C/C=C/C=C/C(=O)O" here
n

Now the same for "CCCCCCCCCCCCCCOS(=O)(=O)O"
n

Now the same for "CC(=O)O"
n

Now the same for "CCCCCCCCCCCCCCCCO"
n

Now the same for "COc1ccc(OC(F)(F)F)cc1CN[C@H]1CCCN[C@H]1c1ccccc1"
n

Now the same for "O=C1CCCCC1"
n

Now the same for "O=C(O)c1cccnc1"
n

* * *

Measurement Description: ATG_Oct_MLP_CIS: Attagene CIS-FACTORIAL HepG2 Assay for human Octamer-Binding Transcription Factor (Oct) (AID 2282993)
Experimental Context: HepG2 Attagene cis-factorial Oct reporter, mRNA; actives raise or lower the signal
The source made the active and inactive calls. The calls were made as follows: active = hit-call score of the fitted dose curve at least 0.9, where 1 is the maximum; inactive = score below 0.9.
Form entry, call: pick from TRUE for active, FALSE for inactive

O=NO
FALSE
Cc1ccc(-c2cc(C(F)(F)F)nn2-c2ccc(S(N)(=O)=O)cc2)cc1
FALSE
CCCCC(CC)COC(=O)CCCCCCCC(=O)OCC(CC)CCCC (configuration not stated)
FALSE
CC(=O)OCC(COC(C)=O)OC(C)=O
FALSE
CCCCCCC(CCCCCCCCCCC(=O)OCC(COC(C)=O)OC(C)=O)OC(C)=O (configuration not stated)
FALSE
CC1(C)C(=O)NC(=O)N1CO
FALSE

# fetch the recorded call for "Oc1ccccc1O" here
TRUE

Now the same for "Cc1cc(SC2=C(O)C[C@@](CCc3ccc(N)cc3)(C(C)C)OC2=O)c(C(C)(C)C)cc1CO"
FALSE

Now the same for "NC=O"
FALSE

Now the same for "OCC(CO)n1cnc(-c2ccc(F)cc2)c1-c1ccnc(Oc2ccccc2)n1"
FALSE

Now the same for Cc1c(C)c2c(c(C)c1O)CCC(C)(COc1ccc(CC3SC(=O)NC3=O)cc1)O2 (configuration not stated)
FALSE

Now the same for "CN(C)CCCN1c2ccccc2Sc2ccc(Cl)cc21"
TRUE

* * *

Read-out: DNA damage-inducible transcript 3 (DDIT3), DDIT3 (gene 1649)
Measurement Description: LTEA_HepaRG_DDIT3: Life Technologies and Expression Analysis (LTEA) Assay for DNA damage-inducible transcript 3 (DDIT3) using HepaRG (AID 2283488)
Experimental Context: mRNA level, 48 h; actives raise or lower the signal
Active and inactive are the calls of the source. The calls were made as follows: active = hit-call score of the fitted dose curve at least 0.9, where 1 is the maximum; inactive = score below 0.9.
Form entry, call: pick from active, inactive

CO[C@@H]1COCC[C@@H]1N[C@@H]1CC[C@@](C(=O)N2CCc3ncc(C(F)(F)F)cc3C2)(C(C)C)C1
inactive

# fetch the recorded call for "O=NO" here
inactive

Now the same for "O=Cc1ccccc1C=O"
inactive

Now the same for "O=C1CCCCC1"
inactive

Now the same for "O=C(O)c1[nH]n(-c2ccc(S(=O)(=O)O)cc2)c(=O)c1N=Nc1ccc(S(=O)(=O)O)cc1"
inactive

Now the same for "CS(=O)(=O)c1ccc([C@@H](C[C@H]2CCC(=O)C2)C(=O)Nc2cnccn2)cc1Cl"
active

Now the same for "OCC(O)CO"
inactive

* * *

Read-out: CYP2C9 (gene 1559)
Measurement Description: LTEA_HepaRG_CYP2C9: Life Technologies and Expression Analysis (LTEA) Assay for CYP2C9 using HepaRG (AID 2283484)
Experimental Context: mRNA level, 48 h; actives raise or lower the signal
Activity calls are given as the source filed them. Rule for the calls: active = hit-call score of the fitted dose curve at least 0.9, where 1 is the maximum; inactive = score below 0.9.
Form entry, call: pick from Y (active), N (inactive)

COC(=O)CCC(=O)OC
N
COC(=O)CCCC(=O)OC
N
CCCCC(CC)COC(=O)CCCCCCCC(=O)OCC(CC)CCCC (stereo not drawn)
N

# fetch the recorded call for "CN(C)CCCN(C)CCCN(C)C" here
N

Now the same for "CC(N)=O"
N

Now the same for "CCCCCCCCCCCCCCCCO"
N

Now the same for "CCc1nc(N)nc(N)c1-c1ccc(Cl)cc1"
Y

Now the same for "C=CCc1ccc(OC)c(OC)c1"
N

* * *

Read-out: CD40, CD40 (gene 958)
Measurement Description: BSK_SAg_CD40: BioMAP Diversity Plus: SAg Assay for CD40 Biomarker Activity (AID 2283088)
Experimental Context: primary human HUVEC with PBMC; actives raise or lower the signal
Calls of active or inactive are those of the source. The calls were made as follows: active = hit-call score of the fitted dose curve at least 0.9, where 1 is the maximum; inactive = score below 0.9.
Form entry, call: pick from active, inactive

# fetch the recorded call for "CSc1ccc(Oc2ccc(S(N)(=O)=O)cc2CN(C)C)cc1C" here
inactive

* * *

Measurement Description: BSK_SAg_PBMCCytotoxicity: PBMC Cytotoxicity Assessment in the BioMAP Diversity Plus: SAg Assay (AID 2283093);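 further: PBMC viability measured as Alamar Blue reduction fluorescence at 546/580 nm; fitted both ways against DMSO so a hit may be loss or gain of signal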
Experimental Context: primary human HUVEC with PBMC
Procedure: BSK_SAg is a cell-based, multiplexed-readout assay that uses umbilical vein endothelium and peripheral blood mononuclear cells, a human vascular primary cell co-culture, with measurements taken at 24 hours after chemical dosing in a 96-well plate.BSK_SAg_PBMCCytotoxicity is an assay component measured in the BSK_SAg assay. It measures Alamar blue related to cell death using Alamar Blue Reduction technology.Data from the assay component BSK_SAg_PBMCCytotoxicity was analyzed into 1 assay endpoint. […]
The source made the active and inactive calls. Rule for the calls: active = hit-call score of the fitted dose curve at least 0.9, where 1 is the maximum; inactive = score below 0.9.
Form entry, call: pick from class 1 (active), class 0 (inactive)

Example entries begin here.
CO[C@@H]1COCC[C@@H]1N[C@@H]1CC[C@@](C(=O)N2CCc3ncc(C(F)(F)F)cc3C2)(C(C)C)C1
class 0
O=C1OC(c2ccc(O)cc2)(c2ccc(O)cc2)c2ccccc21
class 0

# fetch the recorded call for "O=NO" here
class 0

Now the same for "CC(N)=O"
class 0

Now the same for Cc1c(C)c2c(c(C)c1O)CCC(C)(COc1ccc(CC3SC(=O)NC3=O)cc1)O2 (stereo unspecified)
class 1

Now the same for "C=CCCCCCCCCCCCC"
class 0

Now the same for "CCCC[C@H]1CN(CC2CCOCC2)C(=O)OC12CCN(C1(C)CCN(C(=O)c3c(C)ncnc3C)CC1)CC2"
class 0

Now the same for "Cn1cnc2c1c(=O)[nH]c(=O)n2C"
class 0

Now the same for CC(C)NCC(O)c1ccc(O)c(O)c1 (stereo unspecified)
class 1

Now the same for "O=C1c2c(O)cccc2Cc2cccc(O)c21"
class 0

Now the same for "NCCOCCOCCN"
class 0

Now the same for "CC(=O)O"
class 0

Now the same for "CC(=O)O[C@]1(C(C)=O)CC[C@H]2[C@@H]3C=C(Cl)C4=CC(=O)[C@@H]5C[C@@H]5[C@]4(C)[C@H]3CC[C@@]21C"
class 0

Now the same for "NC=O"
class 0

Now the same for "O=C(N[C@@H](c1ccccc1)[C@@H]1CCCCN1)c1cccc(C(F)(F)F)c1Cl"
class 1
